Test system: JAK3(JH1domain-catalytic)
Details: concentration: 1 μM, replicates: in singlicate; n = 1;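 further: KINOMEscan kinase panel screen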
Endpoint name: %Inh (%)
Number in %, nothing else.

Exam item: Would you mind telling me what %Inh value was observed for COc1cc(Nc2nccc(N3CCC(NC(=O)c4cc5ccccc5s4)C3)n2)cc(OC)c1OC (stereo not drawn) ?
Marked response: 0

Exam item: Given the compound CN(C)S(=O)(=O)c1cc(-c2ccc3nccc(-c4cccc(S(N)(=O)=O)c4)c3c2)cnc1N , what is its reported %Inh?
Marked response: 0

Exam item: Data request, read-out %Inh, for COc1ccc(Nc2nccc(NCCNC(=O)c3cc4ccccc4s3)n2)cc1
Marked response: 0

Further cases:
Exam item: Suppose we examine the compound COc1ccc(CNC(=O)NC2CCN(c3ccnc(Nc4ccc(F)cc4)n3)CC2)cc1 ; what %Inh value has been reported?
Marked response: 0

Exam item: Fill blank: measured %Inh of the compound COC(=O)Nc1nc2ccc(Oc3ccc(NC(=O)Nc4cc(C(F)(F)F)ccc4F)cc3)cc2n1C.Cl is ____.
Marked response: 0

Exam item: What value of %Inh has been recorded for this entry: COCCOCCOc1cc2ncc3c4ccc(C#N)cc4[nH]c3c2cc1OC
Marked response: 84

Exam item: Can you share its %Inh? I mean this compound: CC(=O)Nc1nc2cnc(Nc3cc(NC(=O)c4cccc(C5(C#N)CC5)c4Cl)ccc3C)nc2s1
Marked response: 0

Exam item: Sample COc1cc(Nc2nccc(-c3c(-c4cccc(NC(=O)c5c(F)cccc5F)c4)nn4ncccc34)n2)cc(OC)c1OC — what was its %Inh?
Marked response: 59

Exam item: Look at this compound and give its reported %Inh. C[C@@H]1CC[C@@H](C(=O)Nc2ccccc2)CN1c1cc(-c2ccc3c(N)n[nH]c3c2)nc(N)n1
Marked response: 0

----------
System: CSNK2A1
Details: concentration: 1 μM, replicates: in singlicate; n = 1
In this section, each of the compounds is paired with its reported %Inh.
Answer in %, number only, no unit symbol.

Exam item: Any idea what its %Inh is? The compound is COc1ccc(-c2coc3ccc(-c4nnc(SCc5ccc(OC)c(C(F)(F)F)c5)o4)cc23)cc1
Marked response: 22

----------
Property: %Inh; scope: individual molecules
Tested on: DCAMKL3
Construct: gene DCLK3
Settings: concentration: 1 μM, replicates: in singlicate; n = 1
A number alone suffices; assume %.

Worked cases, %Inh given:
Exam item: Entry Cc1cccc(NC(=O)Nc2ccc(Oc3ncnc4ccn(C)c34)cc2)c1 has what %Inh?
Marked response: 0

Exam item: Param item = Cc1occc1-c1ncc(OC[C@@H](N)Cc2c[nH]c3ccccc23)cc1-c1ccc2[nH]nc(C)c2c1.O=C(O)C(F)(F)F ; retrieve measured %Inh.
Marked response: 0

Exam item: For Cn1cc(-c2ccc3c(c2)CCN3C(=O)Cc2cccc(Cl)c2)c2c(N)ncnc21 , what is its reported %Inh?
Marked response: 0

Exam item: So what's the measured %Inh for this one? c1ccc(-c2cnc3nccnn23)cc1
Marked response: 0

Exam item: Please report the recorded %Inh for O=C(Nc1ccccc1F)NC1CCN(c2ccnc(Nc3ccc(F)cc3)n2)CC1 .
Marked response: 0

Continuing:
Exam item: Fill in: %Inh of CCc1ccc(-c2ccc3c(c2)-c2c(cnn2C)S(=O)(=O)N3C)cc1 is ___
Marked response: 0

Exam item: Field request: %Inh | item: CCCCc1nn2ncccc2c1-c1ccnc(Nc2ccc(N3CCN(C)CC3)cc2)n1
Marked response: 2

Exam item: What %Inh value was documented for this molecule, Cl.Cl.NCC(NC(=O)c1cc(-c2ccccc2)c(-c2ccnc3[nH]ccc23)s1)c1ccccc1 (stereo not drawn) ?
Marked response: 10

Exam item: Fill in: %Inh of CN(C)Cc1ccc(-c2ccc3c(Nc4ccc(Oc5ccccn5)cc4)ccnc3c2)o1 is ___
Marked response: 0

----------
System: p38-delta
Conditions: concentration: 1 μM, replicates: in singlicate; n = 1
Endpoint name: %Inh (%)
Note: unit % is implicit; provide only the numeric part.

Exam item: Which %Inh reading was recorded for the molecule CN1CCN(Cc2cccc(-c3ccc4c(Nc5ccc(Oc6ccccc6)cc5)ccnc4c3)c2)CC1 ?
Marked response: 37

Exam item: Item CN(C)Cc1ccc(-c2ccc3c(Nc4ccc(Oc5ccccn5)cc4)ccnc3c2)o1 has what recorded %Inh?
Marked response: 38

Exam item: Give its %Inh value. Item: c1ccc(Oc2ccc(Nc3ccnc4cc(-c5ccc(CNCCN6CCOCC6)o5)ccc34)cc2)nc1
Marked response: 0

Exam item: Consider the molecule Clc1ccc(-c2nn3ncccc3c2-c2ccnc(Nc3ccc4c(c3)OCCO4)n2)cc1 and give its measured %Inh.
Marked response: 13

Exam item: I would be grateful if you could share the reported %Inh for CCn1c(-c2nonc2N)nc2c(C#CC(C)(C)O)nc(OC[C@H](N)c3ccccc3)cc21 .
Marked response: 0

Exam item: Name the recorded %Inh for Cc1ccc(F)c(C(=O)Nc2cccc(-c3nn4ccccc4c3-c3ccnc(Nc4cccc(F)c4)n3)c2)c1F .
Marked response: 0

Exam item: Query (molecule): CC(=O)N1CCN(c2ccc(Nc3nccc(-c4sc(C(C)C)nc4-c4cccc(NS(=O)(=O)c5cccc(Cl)c5)c4)n3)cn2)CC1 ; field requested: %Inh
Marked response: 0

Exam item: Which %Inh reading was recorded for the molecule Oc1cc(Nc2ccnc3cc(I)ccc23)ccc1F ?
Marked response: 27

Exam item: Entry CC(C)c1nc(-c2cccc(NS(=O)(=O)c3c(F)cccc3F)c2F)c(-c2ccnc(Nc3ccc(N4CCOCC4)nc3)n2)s1 has what %Inh?
Marked response: 0

Exam item: Returns the measured %Inh for the input molecule. Input: Cc1occc1-c1ncc(OC[C@@H](N)Cc2c[nH]c3ccccc23)cc1-c1ccc2[nH]nc(C)c2c1.O=C(O)C(F)(F)F
Marked response: 73

Further cases:
Exam item: For the molecule Nc1ncnc2c1nc(-c1ccccc1)n2-c1ccccc1 , what %Inh is on record?
Marked response: 0

Exam item: Give the measured %Inh of C[C@@H]1CC[C@@H](C(=O)Nc2ccccc2)CN1c1cc(-c2ccc3c(N)n[nH]c3c2)nc(N)n1 .
Marked response: 13

Exam item: Could you share which %Inh value was measured for COc1cc(Nc2nccc(N3CCC(NC(=O)Nc4cccc(C(C)=O)c4)C3)n2)cc(OC)c1OC (stereo not shown) ?
Marked response: 41

Exam item: Fill blank: measured %Inh of the molecule Cn1cc(-c2ccc3c(c2)CCN3C(=O)Cc2cccc(Cl)c2)c2c(N)ncnc21 is ____.
Marked response: 57

Exam item: What value of %Inh has been reported for the following molecule? COC(=O)Nc1nc2ccc(Oc3ccc(NC(=O)Nc4cc(C(F)(F)F)ccc4F)cc3)cc2n1C.Cl
Marked response: 0

Exam item: What value of measured %Inh is listed for CCS(=O)(=O)c1ccc(OC)c(Nc2nccc(-c3c(-c4cccc(NC(=O)c5c(F)cccc5F)c4)nn4ncccc34)n2)c1 ?
Marked response: 47

----------
Each entry below carries its reported %Inh.
System: CAMK2A
Details: concentration: 1 μM, replicates: in singlicate; n = 1
Write it as a number; the unit % goes unstated.

Reference set (9 entries):
Exam item: Entry Cc1ccc(S(=O)(=O)Nc2ccc(Nc3nccc(Nc4cccc5[nH]ncc45)n3)cc2)cc1 has what %Inh?
Marked response: 0

Exam item: Given COCCOCCOc1cc2ncc3c4ccc(C#N)cc4[nH]c3c2cc1OC , state its recorded %Inh.
Marked response: 85

Exam item: Requested field: %Inh. Item: COc1cccc(C2=C(Nc3ccc(Cl)c(C(=O)O)c3)C(=O)NC2=O)c1
Marked response: 0

Exam item: Param item = Cn1cc(-c2ccc3c(c2)CCN3C(=O)Cc2cccc(Cl)c2)c2c(N)ncnc21 ; retrieve measured %Inh.
Marked response: 0

Exam item: Item CC(=O)Nc1nc2cnc(Nc3cc(NC(=O)c4cccc(C5(C#N)CC5)c4Cl)ccc3C)nc2s1 has what recorded %Inh?
Marked response: 13

Exam item: GET /values?readout=%Inh&item= CC(C)c1nc(-c2cccc(NS(=O)(=O)c3c(F)cccc3F)c2F)c(-c2ccnc(Nc3ccc(N4CCOCC4)nc3)n2)s1
Marked response: 0

Exam item: So what's the measured %Inh for this one? COc1cccc(C(=O)Nc2cccc(Oc3ccc4nc(NC(=O)C5CC5)cn4n3)c2)c1
Marked response: 11

Exam item: For the compound CN(c1ccc(NC(=O)Nc2cc(C(F)(F)F)ccc2F)cc1)c1ccnc(Nc2ccc(S(N)(=O)=O)cc2)n1 , what %Inh is on record?
Marked response: 0

Exam item: Requested read-out: %Inh. Entry: COc1ccc(CNC(=O)NC2CCN(c3ccnc(Nc4ccc(F)cc4)n3)CC2)cc1
Marked response: 0

Let us examine a further case.
Exam item: %Inh lookup needed for COc1cccc(NC(=O)NC2CCN(c3ccnc(Nc4cc(OC)c(OC)c(OC)c4)n3)C2)c1 (stereo not shown) , thanks.
Marked response: 0

----------
Test system: CDK3
Details: concentration: 1 μM, replicates: in singlicate; n = 1
Endpoint name: %Inh (%)
Report the value in % with no unit label.

Exam item: For COc1cc(Nc2ncc3c(C)nc(-c4cc5ccccc5[nH]4)n3n2)cc(OC)c1OC , what is its reported %Inh?
Marked response: 31
